test: Dog cassette dosing pharmacokinetics; type: in vivo, beagle dogs; settings: male, beagle, plasma, IV, read-out: t½ (converted)
Could you label it criterion met if measured half-life is 6 h or higher, and criterion not met otherwise?

stdin: Check this compound for half-life at or above 6 h: CC[C@H]1CC[C@H](N2CC(=O)N(Cc3ccc(F)c(F)c3)C3(CN(C(N)=O)C3)C2=O)CC1 [Compound 11]
stdout: criterion met

stdin: # bool: half-life of CC[C@H](C)N1CC(=O)N(Cc2ccc(F)c(C)c2)C2(CN(c3cccnn3)C2)C1=O [Compound 16] >= 6 h
stdout: criterion not met

stdin: Exam item: decide whether the reported half-life for CC(C)N1CC(=O)N(Cc2ccc(F)c(Cl)c2)C2(CN(c3cccnn3)C2)C1=O [Compound 9] is at least 6 h.
stdout: criterion not met

stdin: API: above_or_equal(metric=half-life, cutoff=6 h) for item C[C@H]1CC[C@H](N2CC(=O)N(Cc3ccc(Cl)c(F)c3)C3(CN(C(N)=O)C3)C2=O)CC1 [Compound 3]
stdout: criterion met

stdin: Quick check, half-life >= 6 h? CC[C@H](C)N1CC(=O)N(Cc2ccc(F)c(F)c2)C2(CN(c3cccnn3)C2)C1=O [Compound 14]
stdout: criterion not met

stdin: Exam item: decide whether the reported half-life for Cc1cc(CN2C(=O)CN([C@H]3CC[C@H](C)CC3)C(=O)C23CN(C(N)=O)C3)ccc1F [Compound 6] is at least 6 h.
stdout: criterion met

stdin: Is the recorded value of half-life equal to or greater than 6 h for this compound? CC(C)N1CC(=O)N(Cc2ccc(Cl)c(F)c2)C2(CN(c3cccnn3)C2)C1=O [Compound 8]
stdout: criterion not met

stdin: Could you verify whether the entry CC(C)N1CC(=O)N(Cc2ccc(C(F)(F)F)cc2)C2(CN(c3cccnn3)C2)C1=O [Compound 13] shows half-life of no less than 6 h?
stdout: criterion not met
